- procedure text: Stability of the compound in RPMI medium at 1.5 10^-3 M incubated for 5 to 30 mins under dark condition by HPLC method
- Type: physicochemical

molecule	Stability
COc1cc(/C=C/C(=O)/C=C/c2ccc(O)c(OC)c2)ccc1O	Stable
C#CCOc1ccc(/C=C/C(=O)CC(=O)/C=C/c2ccc(OCC#C)c(OC)c2)cc1OC	Stable
COc1cc(/C=C/C(C)=O)ccc1O [DEHYDROZINGERONE]	Stable
COc1cc(/C=C/C(=O)CC(=O)/C=C/c2ccc(O)c(OC)c2)ccc1O [CURCUMIN]	Stable

###

- System: H460
- procedure text: Inhibition of P-gp in drug resistant human H460 cells assessed as reduction in cell viability measured after 48 hrs by sulforhodamine B assay
- Format: cell-based
Can you tell me log10(GI50) for the items I'm about to list?
For clarity, the numbers are log10 values of GI50 expressed in µM.

Below are worked cases with known answers.
molecule	tested system	log10(GI50)
COc1cc(/C=C/C(C)=O)ccc1O [DEHYDROZINGERONE]	H460	1.80
C#CCOc1ccc(/C=C/C(=O)CC(=O)/C=C/c2ccc(OCC#C)c(OC)c2)cc1OC	H460	0.41
COc1cc(/C=C/C(C)=O)ccc1OCCCNC(=O)OC(C)(C)C	H460	1.61
COc1cc(/C=C/C(=O)/C=C/c2ccc(O)c(OC)c2)ccc1O	H460	0.26
C#CCOc1ccc(/C=C/C(C)=O)cc1OC	H460	1.62

Record log10(GI50) per entry; entries follow.
1. C=CCOc1ccc(/C=C/C(C)=O)cc1OC
2. COc1cc(/C=C/C(=O)CC(=O)/C=C/c2ccc(O)c(OC)c2)ccc1O [CURCUMIN]

[1.59, 1.41]
